- assay-explanation: Solubility of salts in water by HPLC at 23° C.
- Format: physicochemical
- condition-parameters: pH 4.6, thermodynamic from solid; water, 23° C., HPLC; read-out: Solubility at Native pH
assay-metric: Solubility

query: Would you kindly share the measured Solubility for CC(=O)NC[C@H]1CN(c2ccc(-c3ccc(CNCc4c[nH]nn4)cc3)c(F)c2)C(=O)O1.Cl [Hydrochloride] ?
result: 1700 µg/mL
